# Tested on: K4 kissing-loop RNA reporter
# protocolNotes: apparent KD of K4 kissing-loop reporter; higher = weaker reporter binding
# assayContext: Eterna round: R107; input ligand: FMN 200 uM
Give measured apparent KD of K4 kissing-loop reporter for each item. Keep answers brief.
One number for each entry, in nM.

Guide cases for apparent KD of K4 kissing-loop reporter, answers given:
constructSequence | assayedTarget | apparent KD of K4 kissing-loop reporter, nM
UAAGACAUGAAAGGAUAUCCGAUAUGGAGCCUUUAGUGAUGUUAGGAGCUAGCCGUAGACAAGAUCGGAGAAGGUUCAACCCACA [theeternabot_sameState_KL_FMN_B_13] | K4 kissing-loop RNA reporter | 787
AUGUAUGAAUUAGGAUAUCGUGAGCCAUGCAUAUAUAUGAUAAAUGGAUAUGUCGUAGUGAUGUUACGAGAAGGAGUGUGGAGUA [KL-XFMN-B2] | K4 kissing-loop RNA reporter | 69.2

Attention now turns to another entry.
Requested field: apparent KD of K4 kissing-loop reporter. Item: AAAUAAAGCAGUCACCCAGUGAUGUUGGAAGGAGCGUGCGAAAGCACAGGUAGGUCGCCAAAAUAAAGUGGCUGCGGCAAAGCCA [#SwitchBubble 25 #K4Early]
409

----------
# Tested on: K4 kissing-loop RNA reporter;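 also: bound reporter read as fluorescence of individual clusters on recovered sequencing chips by microscopy, with normalized cluster intensities fitted with a binding model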
# protocolNotes: apparent KD of K4 kissing-loop reporter; higher = weaker reporter binding
# assayContext: Eterna round: R107; input ligand: theophylline 20 uM
Threshold check on apparent KD of K4 kissing-loop reporter: at or above 400 nM gives rule met, strictly below gives rule not met.

Identify whether the reported apparent KD of K4 kissing-loop reporter of the following sequence is 400 nM or greater: UUAACCAACAGCGAUACCAGCGUGGAGUGAUGUUCCGAGGAUCGGAGUGAUGUUCCGAAGCGCCCUUGGCAGCGCAGAAGCGCAA [Exclusion Theophylline B GF8]
rule not met

Reported apparent KD of K4 kissing-loop reporter reaches at least 400 nM for ACCAAUUUACCGGCAGUAGUGAUGUUACUCCGAGGACCGGUACGGCCGCCACUCGCGAACGUAGGGUUUCUGACUCGAAGAGUCU ?
rule not met

----------
# Test system: MS2 coat protein
# protocolNotes: apparent KD of MS2 coat protein; higher = weaker reporter binding
# assayContext: Eterna round: R107; input ligand: theophylline 20 uM
Please go through the items and note down their apparent KD of MS2 coat protein.
Answers are plain numbers, in nM.

Here are 5 sequences together with their reported answers.
constructSequence | observed
AGCGACAUGCGUGAUACCAGCUACAUGAGGAUCACCCAUGUACGUCAGAAAUGACUGUGUAGCCCUUGGCAGCAUAAUGCAUGUC [Exclusion - Theophylline B (Freestyle 19)] | 60.6
AGAGUUAGACAAAAGUCUAGCUCACCAGAAGGAGCGUCCGAAAGGACAGGUAGGUCGCUGGUACGUGAGGAUCACCCACGUUCCU [ArgAS 18 #OpenEnded #AlternativeMS2] | 26.3
GCUUAGAAACCUGAUACCAGUCAGCCCUAUGACAUGAGGAUCACCCAUGUGAUACUCACGGACCCUUGGCAGCAGGGUCGAUUAC [theeternabot_sameState_MS2_Theo_B_17] | 812
AAAUGUACGUCGGCCGCCACUGCGCUGAAGACAGUCACAUGAGGAUCACCCAUGUACGACAAGGGUAGGACCGGGAUGUGAGGGU [Rate] | 130
CCGUCACAUGAGGAUCACCCAUGUGCGGAAGGAGCGGACGACAGUCCAGGUAGGUCGCCGUAUAGCCAAUGACCAGCAGUGUCGG [Betesotiqu] | 20.8

In the following, a different sequence is considered.
Entry CGUCGAAACUGAAGGAGCGAGAUAACAACAUUGGGUCUCAACAUGAGGAUCACCCAUGUAUCUCAGGUAGGUCGCGGUGUCACCG [Exclusion Arginine B GF19] has what apparent KD of MS2 coat protein?
267
